# Test system: PIK3CA(C420R);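 note: KINOMEscan scanMAX binding as percent activity remaining versus control; lower means stronger binding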
# MEASUREMENT_SETUP: Compound Concentration (nM):1000
Hi there, I'd appreciate the recorded Percent Control for every entry that follows.
Report the figure in % without appending any unit label.

Reported Percent Control for COc1cc(/C=N/Nc2ncnc3[nH]ncc23)ccc1O [GW578748X] : what is it?
97

Input NS(=O)(=O)c1ccc(N/N=C2\C(=O)Nc3ccc(C(=O)NCc4ccncc4)cc32)cc1 [GW300657X]
90

Input COc1ccc2[nH]c3c4[nH]c5ccc(OC)cc5c4c4c(c3c2c1)C(=O)NC4=O [GW296115X]
90

Input COc1cc(N2CCN(C(C)C)CC2)ccc1Nc1nc(Nc2ccc(F)cc2C(=O)NC[C@@H](O)CO)c2cc[nH]c2n1 [GSK1392956A]
99

Origin of values: paper PMC7826789
